- Test target: T1, VLP noro antigen derived from the norovirus GII/4, composed by associating 90 dimers of VP1 each including … (norovirus GII/4, UniProt P54635 1-539)
- T1 construct: Virus-like particle; also called solid phase VLP
- T1 chain: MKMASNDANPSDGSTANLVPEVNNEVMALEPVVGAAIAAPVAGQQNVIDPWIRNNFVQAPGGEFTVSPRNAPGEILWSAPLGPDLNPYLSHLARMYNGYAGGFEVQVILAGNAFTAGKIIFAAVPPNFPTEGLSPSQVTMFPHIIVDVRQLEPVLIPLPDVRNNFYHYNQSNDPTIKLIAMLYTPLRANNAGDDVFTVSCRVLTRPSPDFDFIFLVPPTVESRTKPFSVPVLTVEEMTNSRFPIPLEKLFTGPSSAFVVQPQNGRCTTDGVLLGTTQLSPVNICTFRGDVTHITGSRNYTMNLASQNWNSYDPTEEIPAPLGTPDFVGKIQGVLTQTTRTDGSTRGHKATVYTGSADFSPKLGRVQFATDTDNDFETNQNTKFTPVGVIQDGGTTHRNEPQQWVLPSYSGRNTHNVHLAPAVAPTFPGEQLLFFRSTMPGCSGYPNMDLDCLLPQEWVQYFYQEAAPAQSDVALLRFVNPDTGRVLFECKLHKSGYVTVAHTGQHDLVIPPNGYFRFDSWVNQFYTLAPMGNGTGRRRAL
- Method: SPR (T200, CM3), VLP noro antigen immobilized, antibody as analyte
Items are presented alongside their recorded Kd.
Quick note: unit goes after the number.

VHH antibody including the amino acid sequence represented by SEQ ID NO: 38 (VHH, Alpaca VHH expressed in E. coli; also called monomer antibody; not shown: C-terminal 3xFlag tag and His tag from the modified pET22b(+) vector) VHH: QVQLVESGGGVVQTGGSLRLSCAASGSTFSIGAMGWYRQAPGKQRELVATVNRASRTIYADSVRGRFTISRDNAKNLVYLQMNNLKPEDTAVYYCNVIATSASGRGVTSTSWGQGSQVTVSS	149 nM
dimer antibody (SEQ ID NO: 99) in which the structure domain of SEQ ID NO: 39 and the structure domain of SEQ ID NO: 38 are connected from N to C via a linker (VHH, Single-chain tandem heterodimer of two VHH domains (39 then 38); also called Divalent 99) QLQLVESGGGLVQAGGSLRLSCVASGFPFASSAMAWFRQAPGKEREFVASISYRGITTYYAQPVKGRFTMSRDNAKNTVYLQMNSLKPEDTAVYYCYAKSIWGNAYWGQGTQVTVSPGGGGSGGGASGGGGSQVQLVESGGGVVQTGGSLRLSCAASGSTFSIGAMGWYRQAPGKQRELVATVNRASRTIYADSVRGRFTISRDNAKNLVYLQMNNLKPEDTAVYYCNVIATSASGRGVTSTSWGQGSQVTVSSEPKTPKPQSASAA	0.00947 nM
dimer antibody having two of the structural domains each having the amino acid sequence represented by SEQ ID NO: 38 (SEQ ID NO: 97) (VHH, also called Divalent 97) QVQLVESGGGVVQTGGSLRLSCAASGSTFSIGAMGWYRQAPGKQRELVATVNRASRTIYADSVRGRFTISRDNAKNLVYLQMNNLKPEDTAVYYCNVIATSASGRGVTSTSWGQGSQVTVSSGGGGSGGGASGGGGSQVQLVESGGGVVQTGGSLRLSCAASGSTFSIGAMGWYRQAPGKQRELVATVNRASRTIYADSVRGRFTISRDNAKNLVYLQMNNLKPEDTAVYYCNVIATSASGRGVTSTSWGQGSQVTVSSEPKTPKPQSASAA	0.13 nM

The record that follows has no Kd shown yet.
Assign Kd to the following record: dimer antibody (SEQ ID NO: 98) in which the structure domain of SEQ ID NO: 38 and the structure domain of SEQ ID NO: 39 are connected from N to C via a linker (VHH, Single-chain tandem heterodimer of two VHH domains (38 then 39); also called Divalent 98) QVQLVESGGGVVQTGGSLRLSCAASGSTFSIGAMGWYRQAPGKQRELVATVNRASRTIYADSVRGRFTISRDNAKNLVYLQMNNLKPEDTAVYYCNVIATSASGRGVTSTSWGQGSQVTVSSGGGGSGGGASGGGGSQLQLVESGGGLVQAGGSLRLSCVASGFPFASSAMAWFRQAPGKEREFVASISYRGITTYYAQPVKGRFTMSRDNAKNTVYLQMNSLKPEDTAVYYCYAKSIWGNAYWGQGTQVTVSPEPKTPKPQSASAA 0.485 nM
